Assay: yeast growth modulation, basal conditions, primary screen, YJM789 clinical isolate, OD600, 24 h (AID 1089);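 further: growth of clinical yeast isolate S. cerevisiae YJM 789 seeded 1000 cells per well; test concentration not given here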
Settings: S. cerevisiae YJM789 growth, higher = more signal, called active from +8 up or from −8 down
Active and inactive are the calls of the source.
REPORTED ENDPOINT: z-score

{"columns": ["COMPOUND", "z-score"],
 "data": [
  ["O=C1c2ccccc2[C@](Cc2ccccc2I)(C(=O)NC2CC2)[C@H](c2ccc(CO)cc2)N1C1CCCCC1", "1.13 (inactive)"],
  ["C#CCN(Cc1ccccc1Br)C(/C=C/c1ccccc1)CO (configuration not stated)", "-2.9 (inactive)"],
  ["CC(=O)n1cc(C(O)C2C=CC3C(=O)N(C)C(=O)C3N2Nc2ccccc2)c2ccccc21 (configuration not stated)", "-0.0186 (inactive)"],
  ["C=CCNC(=O)[C@H]1[C@@H]2C(=O)O[C@@H](c3ccccc3)[C@@H](c3ccccc3)N2[C@@H](c2ccccc2OCCO)[C@]12C(=O)Nc1ccc(C#CC3=CCCCC3)cc12", "2.06 (inactive)"],
  ["CCOC(=O)C[C@H]1[C@H](OC(=O)c2ccc(C(=O)c3ccccc3)cc2)[C@@H](NC(=O)c2ccc(-c3ccccc3)cc2)c2cc(OCCCO)ccc2N1C(=O)c1ccccc1", "-0.575 (inactive)"],
  ["CN(C)C(=O)[C@@]1(Cc2ccccc2)N=C(c2ccc(OCCCO)cc2)O[C@H]1c1ccccc1N=[N+]=[N-]", "-2.59 (inactive)"]
]}

Next, consider the following compound.
Incoming: Supply z-score value. Item: COc1ccc([Si](C)(C)[C@H]2[C@H](CC(=O)N3CCC[C@H]3CO)O[C@@]3(C(=O)N(Cc4cccc(N5C(=O)c6cccc7cccc5c67)c4)c4ccccc43)[C@@H]2C)cc1
Outgoing: -0.0977 (inactive)
